These measurements were taken from ChEMBL document CHEMBL5338788.

biological target: Histone-arginine methyltransferase CARM1 (Homo sapiens, UniProt Q86X55)
Sequence (Q86X55 whole entry): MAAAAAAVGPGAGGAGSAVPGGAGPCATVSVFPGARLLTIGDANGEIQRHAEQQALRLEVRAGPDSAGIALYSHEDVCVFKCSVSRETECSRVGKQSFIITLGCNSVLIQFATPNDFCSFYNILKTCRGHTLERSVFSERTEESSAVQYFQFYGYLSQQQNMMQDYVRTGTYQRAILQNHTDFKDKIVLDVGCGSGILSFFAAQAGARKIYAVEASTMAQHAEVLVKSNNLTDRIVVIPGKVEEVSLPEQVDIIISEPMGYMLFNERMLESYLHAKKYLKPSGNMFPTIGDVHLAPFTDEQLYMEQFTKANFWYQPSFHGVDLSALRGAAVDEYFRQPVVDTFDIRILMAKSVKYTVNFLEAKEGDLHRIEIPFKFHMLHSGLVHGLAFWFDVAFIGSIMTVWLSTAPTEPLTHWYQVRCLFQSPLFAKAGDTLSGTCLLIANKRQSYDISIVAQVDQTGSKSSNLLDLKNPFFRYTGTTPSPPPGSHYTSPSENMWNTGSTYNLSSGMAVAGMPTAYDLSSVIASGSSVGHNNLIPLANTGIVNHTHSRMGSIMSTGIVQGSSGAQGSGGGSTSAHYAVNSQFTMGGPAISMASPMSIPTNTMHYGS
pIC50: −log10 of the molar value.
observed property: pIC50

# input # get_value(readout='pIC50', item= `C=CC(=O)NCc1cc(C(=O)NCc2c(SC)cc(C)[nH]c2=O)c(C)c(N(CC)C2CCOCC2)c1` )
# output < 5.00

----------
target: UniProt:Q96L73
Sequence (Q96L73 whole entry): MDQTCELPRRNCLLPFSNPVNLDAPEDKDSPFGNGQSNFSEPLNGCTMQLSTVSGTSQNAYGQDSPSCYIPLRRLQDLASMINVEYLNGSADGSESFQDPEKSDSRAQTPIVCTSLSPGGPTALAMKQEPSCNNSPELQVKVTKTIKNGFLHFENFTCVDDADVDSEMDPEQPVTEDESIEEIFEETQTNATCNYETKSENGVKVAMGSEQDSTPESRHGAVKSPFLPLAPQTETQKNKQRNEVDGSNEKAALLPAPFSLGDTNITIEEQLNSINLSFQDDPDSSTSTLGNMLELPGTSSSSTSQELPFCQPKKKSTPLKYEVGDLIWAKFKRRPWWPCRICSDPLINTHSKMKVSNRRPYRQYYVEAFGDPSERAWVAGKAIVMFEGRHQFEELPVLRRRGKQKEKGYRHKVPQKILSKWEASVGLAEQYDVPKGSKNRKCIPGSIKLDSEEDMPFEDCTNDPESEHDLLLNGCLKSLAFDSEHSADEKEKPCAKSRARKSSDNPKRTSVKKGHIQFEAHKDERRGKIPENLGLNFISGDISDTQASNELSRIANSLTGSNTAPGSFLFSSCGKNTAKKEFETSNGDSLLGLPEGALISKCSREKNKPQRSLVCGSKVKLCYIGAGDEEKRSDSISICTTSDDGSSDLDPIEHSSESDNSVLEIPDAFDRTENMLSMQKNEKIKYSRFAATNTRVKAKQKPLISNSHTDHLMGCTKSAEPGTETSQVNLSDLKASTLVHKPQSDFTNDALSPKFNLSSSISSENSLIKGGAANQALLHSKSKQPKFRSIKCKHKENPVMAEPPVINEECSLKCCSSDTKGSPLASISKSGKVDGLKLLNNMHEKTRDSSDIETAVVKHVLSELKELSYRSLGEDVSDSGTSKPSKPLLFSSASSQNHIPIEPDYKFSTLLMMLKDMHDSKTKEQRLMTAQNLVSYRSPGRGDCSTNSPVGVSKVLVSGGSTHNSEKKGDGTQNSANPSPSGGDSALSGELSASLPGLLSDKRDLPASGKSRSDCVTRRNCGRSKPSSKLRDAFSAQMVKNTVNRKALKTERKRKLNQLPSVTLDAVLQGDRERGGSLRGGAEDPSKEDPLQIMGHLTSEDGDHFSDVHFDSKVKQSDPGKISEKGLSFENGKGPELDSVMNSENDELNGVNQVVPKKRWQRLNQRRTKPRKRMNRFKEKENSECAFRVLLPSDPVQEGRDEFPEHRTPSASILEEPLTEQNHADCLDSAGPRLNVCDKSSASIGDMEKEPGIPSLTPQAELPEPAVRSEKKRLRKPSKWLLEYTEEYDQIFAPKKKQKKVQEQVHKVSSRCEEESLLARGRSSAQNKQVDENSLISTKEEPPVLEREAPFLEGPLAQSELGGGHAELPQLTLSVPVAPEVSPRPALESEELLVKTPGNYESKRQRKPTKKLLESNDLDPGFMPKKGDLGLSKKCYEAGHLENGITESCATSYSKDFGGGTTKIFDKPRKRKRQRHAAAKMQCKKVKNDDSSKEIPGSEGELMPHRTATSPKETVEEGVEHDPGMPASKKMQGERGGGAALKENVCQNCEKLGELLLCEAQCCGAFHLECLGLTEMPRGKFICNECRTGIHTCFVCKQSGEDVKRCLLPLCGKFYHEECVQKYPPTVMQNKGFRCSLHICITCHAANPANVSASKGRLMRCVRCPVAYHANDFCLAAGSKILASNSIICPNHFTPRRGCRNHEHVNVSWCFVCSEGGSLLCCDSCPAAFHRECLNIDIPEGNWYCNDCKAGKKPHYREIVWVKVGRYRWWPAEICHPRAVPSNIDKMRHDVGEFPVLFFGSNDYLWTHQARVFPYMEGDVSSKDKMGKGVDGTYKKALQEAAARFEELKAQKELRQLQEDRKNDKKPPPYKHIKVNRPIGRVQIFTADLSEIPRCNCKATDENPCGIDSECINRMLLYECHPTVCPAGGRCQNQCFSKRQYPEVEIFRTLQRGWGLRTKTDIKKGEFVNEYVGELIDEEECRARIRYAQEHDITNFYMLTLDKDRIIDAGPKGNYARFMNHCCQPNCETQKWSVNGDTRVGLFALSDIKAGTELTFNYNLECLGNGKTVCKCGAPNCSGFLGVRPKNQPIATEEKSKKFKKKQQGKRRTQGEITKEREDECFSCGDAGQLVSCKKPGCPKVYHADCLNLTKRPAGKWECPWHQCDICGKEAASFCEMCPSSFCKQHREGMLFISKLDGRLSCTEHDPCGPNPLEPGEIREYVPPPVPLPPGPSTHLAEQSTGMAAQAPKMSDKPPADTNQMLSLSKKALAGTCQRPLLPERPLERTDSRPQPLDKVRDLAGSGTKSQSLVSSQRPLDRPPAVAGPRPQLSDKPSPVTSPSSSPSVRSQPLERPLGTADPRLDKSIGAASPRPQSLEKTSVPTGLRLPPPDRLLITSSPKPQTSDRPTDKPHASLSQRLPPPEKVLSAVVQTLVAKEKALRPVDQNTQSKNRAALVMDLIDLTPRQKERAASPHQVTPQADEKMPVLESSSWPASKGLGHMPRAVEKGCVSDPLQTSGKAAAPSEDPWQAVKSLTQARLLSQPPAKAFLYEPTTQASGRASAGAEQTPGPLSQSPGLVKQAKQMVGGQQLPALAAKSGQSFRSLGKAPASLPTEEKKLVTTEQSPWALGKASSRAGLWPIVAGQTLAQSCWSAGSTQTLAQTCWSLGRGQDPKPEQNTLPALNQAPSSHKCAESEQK
pIC50: −log10 of the molar value.
observed property: pIC50

# input # get_value(readout='pIC50', item= `C=CC(=O)NCc1cc(C(=O)NCc2c(SC)cc(C)[nH]c2=O)c(C)c(N(CC)C2CCOCC2)c1` )
# output < 5.00
